- methodNotes: Cytotoxicity assay (neutral red) SK-MEL
- Assay type: cell-based
- assaySetup: human, SK-MEL cells, NA = No activity at 100 μM
- Procedure: Each assay was performed in 96-well tissue culture-treated microplates. […] All cell lines were obtained from the American Type Culture Collection (ATCC, Rockville, MD, USA). Each assay was performed in 96-well tissue culture-treated microplates. Cells were seeded at a density of 25,000 cells/well and incubated for 24 h. […] At the end of incubation, the cell viability was determined using neutral red dye according to a modification of the procedure of Borenfreund et al.. […]
parameter: IC50 at 48 h (µg/mL)
Give your result in µg/mL as a bare value.

Consider the compound COc1cccc2c1C(=O)c1c(O)c3c(c(O)c1C2=O)C[C@@](O)(C(=O)CO)C[C@@H]3O[C@H]1C[C@H](N)[C@H](O)[C@H](C)O1 . State its measured IC50 at 48 h. 0.8
